# System: ACHN renal
# experiment: NCI tumour cell line growth inhibition, 48 h
Listed next: entries and their corresponding GI50.

# smiles_code, study_target, result
rows = [
    ("Cc1cc2nc(CS)[nH]c2cc1C", "ACHN renal", "15.4 µM"),
    ("COc1ccc2cnc(N)c(C#Cc3cc(C(=O)Nc4ccc(CN5CCN(C)CC5)c(C(F)(F)F)c4)cnc3C)c2c1", "ACHN renal", "0.449 µM"),
    ("Cc1cc(Cl)ccc1Nc1nc(C(F)(F)F)ccc1C(=O)N/N=C/c1cccc(O)c1", "ACHN renal", "4.19 µM"),
    ("COc1ccc2c(c1)C(=Nc1ccc(F)c(F)c1F)c1c-2c(Nc2ccc(F)c(F)c2F)nc2ccccc12", "ACHN renal", "41.2 µM"),
]

Please turn your attention to the following entry.
Value sought: GI50, system ACHN renal, item "O=C(O)c1ccc2nc(-c3ccc(OCCCCCOc4ccc(-c5nc6ccc(C(=O)O)cc6[nH]5)cc4)cc3)[nH]c2c1" . Result: > 100 µM

====

# System: SF-268 CNS
# experiment: NCI tumour cell line growth inhibition, 48 h
metric: GI50

# molecule, result
measured = [
    ("CCOc1cc2ncc(C#N)c(Nc3ccc(F)c(Cl)c3)c2cc1NC(=O)CC1CCSS1 (stereo unspecified)", "740 nM"),
    ("COc1cc2c(c(OC)c1OC)-c1ccc(SC)c(=O)cc1C(CC(=O)Oc1ccc(F)cc1)C2 (stereo unspecified)", "461 nM"),
    ("COc1ccc2cnc(N)c(C#Cc3cc(C(=O)Nc4ccc(CN5CCN(C)CC5)c(C(F)(F)F)c4)cnc3C)c2c1", "2680 nM"),
    ("COc1cc(Cl)cc(-c2nn(-c3cccc(NC(=O)c4cccc(C(F)(F)F)c4)c3)cc2-c2ccncc2)c1", "> 100000 nM"),
    ("Cn1ccnc1C(=O)/C=C/c1ccc(C(=O)Nc2ccc(F)cc2)cc1", "1910 nM"),
]

Entry CC(=O)Oc1cn(-c2ccc(Cl)cc2)nc1C1=NN(C(C)=O)C(c2ccc(F)cc2F)O1 (stereo unspecified) ; GI50 = 29600 nM

====

# Tested on: NCI-H460 lung
# experiment: NCI tumour cell line growth inhibition, 48 h
Listed next: entries and their corresponding TGI.

Here are 3 compounds together with their reported answers.
# compound, TGI
measured = [
    ("CC(CCc1ccccc1)NCC(O)n1c(/N=N/N(C)C)nc2c1c(=O)n(C)c(=O)n2C (stereo unspecified)", "> 100 µM"),
    ("CCOC(=O)COc1ccc(OC)c2c1C(=O)CCC2", "> 100 µM"),
    ("C[C@@H]1OC(=O)C[C@H]2CC(=O)N(CCC3CN(C(=O)c4ccccc4)c4ccccc43)C[C@@H]21 (stereo partly specified)", "> 100 µM"),
]

Entry "Cc1n[nH]c(=O)n1/N=C/c1cccc(Cl)c1" ; TGI = > 100 µM

Entry COCC1OC(OC2OCC3OC4(OCC(O)(C(C)OC)C5OCOC54)OC3C2OC)C(OC)C(O)C1OC1OC(C)C(OC)C(OC2OC(C)C3OC4(CC(O)C(OC5CC(OC6CC(C)([N+](=O)[O-])C(OC)C(C)O6)C(OC(=O)c6c(C)c(Cl)c(O)c(Cl)c6OC)C(C)O5)C(C)O4)OC3(C)C2O)C1O (stereo unspecified) ; TGI = > 100 µM

Entry "COc1ccc2nc3n[nH]c(N)c3nc2c1" ; TGI = > 84.2 µM
